read-out: Cytochrome P450 3A7 (Homo sapiens); assay: LTEA_HepaRG_CYP3A7: Life Technologies and Expression Analysis (LTEA) Assay for CYP3A7 using HepaRG (AID 2283492); conditions: mRNA level, 48 h; actives raise or lower the signal
The source made the active and inactive calls. Rule for the calls: active = hit-call score of the fitted dose curve at least 0.9, where 1 is the maximum; inactive = score below 0.9.
In this exercise, the only acceptable responses are active, inactive

Consider the following illustrative entries.
• CCCCCC(=O)O = inactive
• Cc1ccccc1Cl = inactive
• CC(=O)Oc1ccccc1C(=O)O = inactive
• C=CCc1ccc(O)c(OC)c1 = inactive

Ask: Could you check what this test reported for "CCOC(=O)CCC(=O)OCC" ?
Result: inactive

Ask: What did this assay record as the result for "CCCCCCCC=O" ?
Result: inactive

Ask: Lab log entry: "O=C(N[C@@H](Cc1ccccc1)[C@@H](O)C(=O)N1C[C@@H](O)[C@@H](O)C1)c1cc2cc(Cl)ccc2[nH]1" — outcome as called in the assay?
Result: active

Ask: In this assay, the call recorded for "C=CCOC(=O)c1ccccc1C(=O)OCC=C" was what?
Result: inactive

Ask: Returns: the outcome recorded for "Cc1ccc(C)c(C)c1" in this assay.
Result: inactive

---

molecular target: Estrogen-related receptor gamma (Homo sapiens) (UniProt P62508); experiment: ATG_ERRg_TRANS: Attagene TRANS-FACTORIAL HepG2 Assay for human Estrogen-Related Receptor gamma (ERRg) (AID 2282977); conditions: HepG2 Attagene TRANS reporter, ERRg transactivation;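 note: hits increase reporter signal over DMSO so potencies reflect activators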
Sequence (P62508 whole entry, looked up): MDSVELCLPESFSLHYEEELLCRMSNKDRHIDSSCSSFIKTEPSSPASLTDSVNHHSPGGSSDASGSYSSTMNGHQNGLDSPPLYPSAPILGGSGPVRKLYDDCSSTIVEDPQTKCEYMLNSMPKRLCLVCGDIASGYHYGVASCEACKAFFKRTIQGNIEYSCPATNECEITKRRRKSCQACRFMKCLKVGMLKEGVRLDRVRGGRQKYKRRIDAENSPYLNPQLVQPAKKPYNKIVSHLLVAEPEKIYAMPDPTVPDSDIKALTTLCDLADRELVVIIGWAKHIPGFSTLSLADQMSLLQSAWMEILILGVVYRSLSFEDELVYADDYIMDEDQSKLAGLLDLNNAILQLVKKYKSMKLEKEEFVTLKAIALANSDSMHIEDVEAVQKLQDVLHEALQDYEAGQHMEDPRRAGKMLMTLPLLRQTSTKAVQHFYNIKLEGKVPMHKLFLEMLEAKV
Records with an inconclusive call do not appear. Activity calls are given as the source filed them. Rule for the calls: active = hit-call score of the fitted dose curve at least 0.9, where 1 is the maximum; inconclusive = response in the unintended direction; inactive = score below 0.9.
Measured parameter: outcome

• CN[C@H]1CC[C@@H](c2ccc(Cl)c(Cl)c2)c2ccc(S(N)(=O)=O)cc21 = inactive
• CCCCCCCCCCCCCCCCCC(=O)O = inactive
• Cc1ccc2ncccc2c1 = inactive
• CCNc1cccc(C)c1 = inactive

# context switch: different molecule, same outcome
// assay Estrogen-related receptor gamma (Homo sapiens) (UniProt P62508), entry "Cc1cc(NC(=O)C(=O)O)cc(C)c1Oc1ccc(O)c2c1CCC2" , outcome value = inactive

---

read-out: Vascular cell adhesion molecule 1 (VCAM1), VCAM1 (gene 7412); test: BSK_hDFCGF_VCAM1: BioMAP Diversity Plus: hDFCGF Assay for Vascular cell adhesion molecule 1 (VCAM1) Biomarker Activity (AID 2283065); conditions: primary human foreskin fibroblasts; actives raise or lower the signal
Active and inactive are the calls of the source. The calls were made as follows: active = hit-call score of the fitted dose curve at least 0.9, where 1 is the maximum; inactive = score below 0.9.
Just give me one of these, please: 1 for active, 0 for inactive

Some solved cases for reference:
- CCCCCCCCCCC: 0
- Nc1nc(N)c2nc(CNc3ccc(C(=O)N[C@@H](CCC(=O)O)C(=O)O)cc3)cnc2n1: 0
- CCc1c(C(=O)NN2CCCCC2)nn(-c2ccc(Cl)cc2Cl)c1-c1ccc(Br)cc1: 1
- CCNc1cccc(C)c1: 0
- OC[C@@H](O)[C@@H](O)[C@H](O)[C@H](O)CO: 0
- C=CCc1ccc(O)c(OC)c1: 0
- CC(C)(C)c1cc(O)c(C(C)(C)C)cc1O: 1
- CCCCCCCCCCO: 0
- CCCCC(CC)COC(=O)CC(C(=O)OCC(CC)CCCC)S(=O)(=O)O (centres undefined): 1
- COc1cc(-c2nc(NC(=O)c3cc4cc(C)cc(C)c4n3CC(=O)O)sc2CCC2CCCCC2)c(OC)cc1Cl: 1

Ask: # fetch the recorded call for "COC(=O)c1ccc(O)cc1" here
Result: 0

Ask: Outcome? "Oc1ccc2ccccc2c1N=Nc1ccccc1"
Result: 0

Ask: What call does the record list for "Cc1ccc(Cl)cc1" ?
Result: 0

Ask: Outcome logged for "Cc1ccccc1Cl" in this assay:
Result: 0

These data points were gathered from PubChem BioAssay (EPA / NIEHS).
